# target-or-system: human μ-opioid receptor (Homo sapiens, UniProt P35372)
# Construct: expressed in transfected cells; host or cells: CHO (CHO/μOR cells)
# Sequence (P35372 whole entry): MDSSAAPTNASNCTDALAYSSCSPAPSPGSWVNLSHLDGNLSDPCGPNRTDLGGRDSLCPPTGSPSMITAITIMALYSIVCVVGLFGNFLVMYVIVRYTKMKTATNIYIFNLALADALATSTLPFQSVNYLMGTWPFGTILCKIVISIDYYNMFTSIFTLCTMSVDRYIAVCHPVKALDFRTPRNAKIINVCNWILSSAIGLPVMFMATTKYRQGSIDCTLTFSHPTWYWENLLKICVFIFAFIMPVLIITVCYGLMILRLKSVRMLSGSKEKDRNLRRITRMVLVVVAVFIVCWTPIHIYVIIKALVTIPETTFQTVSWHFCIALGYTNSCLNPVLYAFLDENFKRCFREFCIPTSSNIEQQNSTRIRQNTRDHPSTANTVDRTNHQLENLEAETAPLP
# assay-info: cell-based
# Format: cell-based
# assay-conditions: CHO/μOR cells, cAMP inhibition; n = 3; "-" = no measurable activity; read-out: EC50 (nM) (95% CI), µOR-Gi/o activation assay
// NB: equality with 90 nM counts as Not met; only EC50 strictly below is Met

- input-smiles: "CN(C)[C@H](CNC(=O)NCC1CCCCC1)Cc1cccc2ccccc12"
  class: "Not met"
- input-smiles: "CN(C)[C@H](CNC(=O)NCCc1ccccc1)Cc1cccc2ccccc12"
  class: "Not met"
- input-smiles: "Cc1ccccc1CNC(=O)NC[C@H](Cc1cccc2ccccc12)N(C)C"
  class: "Met"
- input-smiles: "CN(C)[C@H](CNC(=O)NCc1ccccc1)Cc1cccc2ccccc12"
  class: "Met"
- input-smiles: "CN(C)[C@H](CNC(=O)NCc1ccc(F)cc1)Cc1cccc2ccccc12"
  class: "Met"
- input-smiles: "CN(C)[C@H](CNC(=O)NC1CCCCC1)Cc1cccc2ccccc12"
  class: "Not met"

---

# target-or-system: human μOR β-arrestin2 pathway (Homo sapiens, UniProt P35372)
# Construct: β-galactosidase enzyme fragment (PathHunter complementation tag); host or cells: U2OS (U2OS/human μOR β-arrestin cells)
# assay-info: cell-based
# Format: cell-based
# assay-conditions: U2OS/human μOR β-arrestin cells; at the concentration printed in parentheses in the cell; n = 3; read-out: Max Effect ± SEM (%), µOR β-arrestin recruitment assay

- molecule: "CN(C)[C@H](CNC(=O)Nc1ccccc1)Cc1cccc2ccccc12"
  value-unit: "%"
  Emax: 1.12
- molecule: "C[C@@H](Cc1ccsc1)NC(=O)NC[C@H](Cc1ccc(O)cc1)N(C)C [PZM21, reference compound]"
  value-unit: "%"
  Emax: 3.09
- molecule: "CN(C)[C@H](CNC(=O)NCCc1ccc(F)cc1)Cc1cccc2ccccc12"
  value-unit: "%"
  Emax: 7.72
- molecule: "CN(C)[C@H](CNC(=O)NCc1ccccc1)Cc1cccc2ccccc12"
  value-unit: "%"
  Emax: 0.38
- molecule: "Cc1ccccc1NC(=O)NC[C@H](Cc1cccc2ccccc12)N(C)C"
  value-unit: "%"
  Emax: 1.96
- molecule: "Cc1ccccc1CCNC(=O)NC[C@H](Cc1cccc2ccccc12)N(C)C"
  value-unit: "%"
  Emax: 5.45
- molecule: "CN(C)[C@H](CNC(=O)NCc1ccco1)Cc1cccc2ccccc12"
  value-unit: "%"
  Emax: 1.63
- molecule: "CN(C)[C@H](CNC(=O)NCCc1ccccc1)Cc1cccc2ccccc12"
  value-unit: "%"
  Emax: 1.99
- molecule: "CN(C)[C@H](CNC(=O)NCC1CCCCC1)Cc1cccc2ccccc12"
  value-unit: "%"
  Emax: 4.15
- molecule: "COc1ccc(CCNC(=O)NC[C@H](Cc2cccc3ccccc23)N(C)C)cc1"
  value-unit: "%"
  Emax: 2.95
- molecule: "CN(C)[C@H](CNC(=O)NC1CCCCC1)Cc1cccc2ccccc12"
  value-unit: "%"
  Emax: 1.96
- molecule: "Cc1ccccc1CNC(=O)NC[C@H](Cc1cccc2ccccc12)N(C)C"
  value-unit: "%"
  Emax: 2.19
- molecule: "CN(C)[C@H](CNC(=O)NCc1ccc(F)cc1)Cc1cccc2ccccc12"
  value-unit: "%"
  Emax: 1.06

---

# Emax values compiled below
# target-or-system: human μ-opioid receptor (Homo sapiens, UniProt P35372)
# Construct: expressed in transfected cells; host or cells: CHO (CHO/μOR cells)
# assay-info: cell-based
# Assay type: cell-based
# assay-conditions: CHO/μOR cells; at the concentration printed in parentheses in the cell; n = 3; read-out: Max Effect ± SEM (%), µOR-Gi/o activation assay
# Experimental: The inhibition assay was performed as described previously. In brief, tested compound dilutions (with final concentrations of 100 µM, 50 µM, 10 µM, 1 µM, 500 nM, 100 nM, 50 nM, 10 nM, 1 nM, and 100 pM) were produced in saline or DMSO in triplicate. CHO/μOR cells were suspended in the assay buffer and counted, maintaining a cell density of 2000 cells per well, with 5 µL from each well seeded into a 384-well plate. […]

- molecule: "CN(C)[C@H](CNC(=O)Nc1ccccc1)Cc1cccc2ccccc12 [6g]"
  Emax / %: 24.6
- molecule: "CN(C)[C@H](CNC(=O)NCc1ccco1)Cc1cccc2ccccc12 [6j]"
  Emax / %: 27.2
- molecule: "Cc1ccccc1CNC(=O)NC[C@H](Cc1cccc2ccccc12)N(C)C [6h]"
  Emax / %: 41.7

---

# target-or-system: human μ-opioid receptor (Homo sapiens, UniProt P35372)
# Construct: expressed in transfected cells; host or cells: CHO (CHO/μOR cells)
# assay-info: cell-based
# Format: cell-based
# assay-conditions: CHO/μOR cells, cAMP inhibition; n = 3; "-" = no measurable activity; read-out: EC50 (nM) (95% CI), µOR-Gi/o activation assay

- input-smiles: "CN(C)[C@H](CNC(=O)NCc1ccco1)Cc1cccc2ccccc12"
  result-modifier: "="
  EC50 / nM: 97.8
- input-smiles: "Cc1ccccc1CCNC(=O)NC[C@H](Cc1cccc2ccccc12)N(C)C"
  result-modifier: "="
  EC50 / nM: 107
- input-smiles: "CN(C)[C@H](CNC(=O)Nc1ccccc1)Cc1cccc2ccccc12"
  result-modifier: "="
  EC50 / nM: 59.5
- input-smiles: "COc1ccc(CCNC(=O)NC[C@H](Cc2cccc3ccccc23)N(C)C)cc1"
  result-modifier: ">"
  EC50 / nM: 100000
- input-smiles: "Cc1ccccc1NC(=O)NC[C@H](Cc1cccc2ccccc12)N(C)C"
  result-modifier: ">"
  EC50 / nM: 100000

---

# target-or-system: human μ-opioid receptor (Homo sapiens, UniProt P35372)
# Construct: expressed in transfected cells; host or cells: CHO (CHO/μOR cells)
# assay-info: cell-based
# Type: cell-based
# assay-conditions: CHO/μOR cells; at the concentration printed in parentheses in the cell; n = 3; read-out: Max Effect ± SEM (%), µOR-Gi/o activation assay
Decide by Emax: equal to or exceeding 20% means 1.0, less means 0.0.

- molecule: "COc1ccc(CCNC(=O)NC[C@H](Cc2cccc3ccccc23)N(C)C)cc1 [6e]"
  class: 0.0
- molecule: "Cc1ccccc1CCNC(=O)NC[C@H](Cc1cccc2ccccc12)N(C)C [6f]"
  class: 1.0
- molecule: "CN(C)[C@H](CNC(=O)NC1CCCCC1)Cc1cccc2ccccc12 [6l]"
  class: 0.0
- molecule: "CN(C)[C@H](CNC(=O)NCCc1ccccc1)Cc1cccc2ccccc12 [6b]"
  class: 1.0
- molecule: "CN(C)[C@H](CNC(=O)NCc1ccccc1)Cc1cccc2ccccc12 [6a]"
  class: 1.0
- molecule: "CN(C)[C@H](CNC(=O)NCCc1ccc(F)cc1)Cc1cccc2ccccc12 [6d]"
  class: 1.0
- molecule: "CN(C)[C@H](CNC(=O)NCc1ccc(F)cc1)Cc1cccc2ccccc12 [6c]"
  class: 1.0
- molecule: "Cc1ccccc1NC(=O)NC[C@H](Cc1cccc2ccccc12)N(C)C [6i]"
  class: 0.0
- molecule: "C[C@@H](Cc1ccsc1)NC(=O)NC[C@H](Cc1ccc(O)cc1)N(C)C [PZM21, reference compound]"
  class: 1.0
